Origin of values: PubChem BioAssay

System: XIP peptide (Xip251-270) binding
Experiment: small-molecule binders of XIP peptide, primary screen, biochemical, small-molecule microarray, fluorescence 635/667 nm, 0.1 µg/mL protein (AID 1182)
Details: fluorescent protein binding, 635 nm, higher = more signal, called active from +8 up or from −8 down
ATTRIBUTE_MEASURED: composite z-score
Give the figure only, with no unit attached.

Asked: I am curious: what composite z-score value has been reported for O=C(NN=C1C[C@@H](O)[C@@H](O)[C@@H]2[C@@H]3C(=O)N(C4CCCCC4)C(=O)[C@@H]3CC[C@H]12)OCc1ccccc1 ?
Given back: -0.142

Asked: I am curious: what composite z-score value has been reported for O=C(NN=C1C[C@@H](O)[C@@H](O)[C@@H]2[C@@H]3C(=O)N(C4CCCCC4)C(=O)[C@@H]3CC[C@@H]12)OCc1ccccc1 ?
Given back: 0.152

Asked: I am curious: what composite z-score value has been reported for Cc1cc2c(nc1C)CCCCN2CC(C)ON=C1[C@H]2CCn3c(=O)n(-c4ccccc4)c(=O)n3[C@H]2[C@H](O)[C@@H]2O[C@H]12 (some centres undefined) ?
Given back: -0.239

Asked: I am curious: what composite z-score value has been reported for CO[C@H]1COC(=O)CCC[C@@H](C)[C@H](OC)COC(=O)[C@@H]2CCCN2C(=O)CC=C[C@@H]1C ?
Given back: 0.0072

Asked: I am curious: what composite z-score value has been reported for CC(C)=CCCC(C)=CCON=C1C[C@@H](O)[C@@H](O)[C@@H]2[C@@H]3C(=O)N(C4CCCCC4)C(=O)[C@@H]3CC[C@@H]12 ?
Given back: -0.318

Asked: I am curious: what composite z-score value has been reported for CCOC(=O)[C@H](Cc1ccccc1)NC(=O)CCC1CC(OC(=O)NCCc2ccc(F)cc2)CC2(CCCC(COC(=O)NCCc3ccccc3OC)O2)O1 (some centres undefined) ?
Given back: -0.157

Asked: I am curious: what composite z-score value has been reported for CCOC(=O)NN=C1C[C@@H](O)[C@@H](O)[C@@H]2[C@@H]3C(=O)N(Cc4ccc5c(c4)OCO5)C(=O)[C@@H]3CC[C@H]12 ?
Given back: 2.21
